biological target: UniProtKB P53634; assay: DPP1 activity inhibition test on U937 cells; assay type: cell-based; conditions: U-937, 50 nM compound, substrate h-Gly-phe-AFC
experimental endpoint: inhibition at 0.05 µM

Requested read-out inhibition at 0.05 µM, target or system UniProtKB P53634, entry N#C[C@H](Cc1ccc(-c2ccc3c(c2)C2(COC2)OC3=O)cc1)NC(=O)[C@@H]1CNCCCO1 [Compound D21]
75 to 100%

Requested read-out inhibition at 0.05 µM, target or system UniProtKB P53634, entry CC1OC(=O)c2ccc(-c3ccc(C[C@@H](C#N)NC(=O)[C@@H]4CNCCCO4)c(F)c3)cc21 (some centres unmarked) [Compound D73]
75 to 100%

Requested read-out inhibition at 0.05 µM, target or system UniProtKB P53634, entry Cn1cnc(-n2c(=O)oc3ccc(-c4ccc(C[C@@H](C#N)NC(=O)[C@@H]5CNCCCO5)c(F)c4)cc32)c1 [Compound D62]
30 to 75%

Requested read-out inhibition at 0.05 µM, target or system UniProtKB P53634, entry CN1CC2(C1)OCc1ccc(-c3ccc(C[C@@H](C#N)NC(=O)[C@@H]4CNCCCO4)cc3)cc12 [Compound D20]
75 to 100%

Requested read-out inhibition at 0.05 µM, target or system UniProtKB P53634, entry N#C[C@H](Cc1ccc(-c2ccc3c(c2)CC2(CC2)C3=O)cc1F)NC(=O)[C@@H]1CNCCCO1 [Compound D116]
30 to 75%

Requested read-out inhibition at 0.05 µM, target or system UniProtKB P53634, entry N#C[C@H](Cc1ccc(-c2ccc3c(n2)CCC3=O)cc1F)NC(=O)[C@@H]1CNCCCO1 [Compound D111]
75 to 100%

***
Requested read-out inhibition at 0.05 µM, target or system UniProtKB P53634, entry CO[C@@H](C)Cn1c(=O)oc2ccc(-c3ccc(C[C@@H](C#N)NC(=O)[C@@H]4CNCCCO4)cc3)cc21 [Compound D33]
30 to 75%

Requested read-out inhibition at 0.05 µM, target or system UniProtKB P53634, entry CN1Cc2cc(-c3ccc(C[C@@H](C#N)NC(=O)[C@@H]4CNCCCO4)cc3)sc2C1=O [Compound D12]
< 30%

Requested read-out inhibition at 0.05 µM, target or system UniProtKB P53634, entry CN1CCC2(CC1)OC(=O)c1ccc(-c3ccc(C[C@@H](C#N)NC(=O)[C@@H]4CNCCCO4)cc3)cc12 [Compound D25]
75 to 100%

Requested read-out inhibition at 0.05 µM, target or system UniProtKB P53634, entry CN1CCC2(CC1)OCc1ccc(-c3ccc(C[C@@H](C#N)NC(=O)[C@@H]4CNCCCO4)c(F)c3)cc12 [Compound D105]
< 30%

Requested read-out inhibition at 0.05 µM, target or system UniProtKB P53634, entry N#C[C@H](Cc1ccc(-c2ccc3c(c2)C2(CCN(C4COC4)C2)OC3=O)cc1F)NC(=O)[C@@H]1CNCCCO1 (some centres unmarked) [Compound D89]
< 30%

* * *

target: DPP1 (Homo sapiens (Human)); assay: DPP1 activity inhibition test on U937 cells; format: cell-based; settings: U-937, 50 nM compound, substrate h-Gly-phe-AFC
Sequence (P53634 25-463): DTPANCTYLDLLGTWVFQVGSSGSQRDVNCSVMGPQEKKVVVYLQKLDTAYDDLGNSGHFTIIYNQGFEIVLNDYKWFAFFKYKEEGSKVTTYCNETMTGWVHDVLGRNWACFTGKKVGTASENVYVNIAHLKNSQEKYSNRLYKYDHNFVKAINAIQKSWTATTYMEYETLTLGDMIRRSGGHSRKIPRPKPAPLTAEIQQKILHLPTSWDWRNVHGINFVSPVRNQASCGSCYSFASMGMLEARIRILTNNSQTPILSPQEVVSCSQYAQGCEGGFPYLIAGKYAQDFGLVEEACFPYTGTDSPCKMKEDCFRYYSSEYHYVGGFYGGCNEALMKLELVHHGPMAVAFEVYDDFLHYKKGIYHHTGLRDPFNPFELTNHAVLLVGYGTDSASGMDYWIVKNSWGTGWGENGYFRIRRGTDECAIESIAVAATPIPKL
experimental endpoint: inhibition at 0.05 µM

Solved cases below.
Requested read-out inhibition at 0.05 µM, target or system DPP1 (Homo sapiens (Human)), entry CN1CCc2nc(-c3ccc(C[C@@H](C#N)NC(=O)[C@@H]4CNCCCO4)cc3)sc2C1
30 to 75%

Requested read-out inhibition at 0.05 µM, target or system DPP1 (Homo sapiens (Human)), entry CN1CCC2(CC1)OCc1ccc(-c3ccc(C[C@@H](C#N)NC(=O)[C@@H]4CNCCCO4)cc3)nc12
30 to 75%

Requested read-out inhibition at 0.05 µM, target or system DPP1 (Homo sapiens (Human)), entry N#C[C@H](Cc1ccc(-c2ccc3c(c2)CCC3=O)cc1F)NC(=O)[C@@H]1CNCCCO1
75 to 100%

Requested read-out inhibition at 0.05 µM, target or system DPP1 (Homo sapiens (Human)), entry N#C[C@H](Cc1ccc(-c2ccc3c(c2)C2(CCN(C4COC4)CC2)OC3)cc1)NC(=O)[C@@H]1CNCCCO1
75 to 100%

Requested read-out inhibition at 0.05 µM, target or system DPP1 (Homo sapiens (Human)), entry N#C[C@H](Cc1ccc(-c2ccc3nncn3c2)cc1)NC(=O)[C@@H]1CNCCCO1
< 30%

Requested read-out inhibition at 0.05 µM, target or system DPP1 (Homo sapiens (Human)), entry N#C[C@H](Cc1ccc(-c2ccc3c(c2)COC3=O)cc1F)NC(=O)[C@@H]1CNCC2(CC2)CO1
75 to 100%

Requested read-out inhibition at 0.05 µM, target or system DPP1 (Homo sapiens (Human)), entry CN1CCC2(CC1)OC(=O)c1cnc(-c3ccc(C[C@@H](C#N)NC(=O)[C@@H]4CNCCCO4)cc3)cc12
30 to 75%

Requested read-out inhibition at 0.05 µM, target or system DPP1 (Homo sapiens (Human)), entry N#C[C@H](Cc1ccc(-c2ccc3c(c2)C2(CCN(C4COC4)CC2)OC3=O)cc1F)NC(=O)[C@@H]1CNCCCO1
75 to 100%

***
Requested read-out inhibition at 0.05 µM, target or system DPP1 (Homo sapiens (Human)), entry N#C[C@H](Cc1ccc(-c2ccc3c(c2)COC3=O)cc1)NC(=O)[C@@H]1CNCCCO1
75 to 100%

Requested read-out inhibition at 0.05 µM, target or system DPP1 (Homo sapiens (Human)), entry C[C@H]1CNC[C@@H](C(=O)N[C@H](C#N)Cc2ccc(-c3ccc4oc(=O)n(C)c4c3)cc2F)OC1
75 to 100%

Requested read-out inhibition at 0.05 µM, target or system DPP1 (Homo sapiens (Human)), entry CN1CC2(C1)OC(=O)c1ccc(-c3ccc(C[C@@H](C#N)NC(=O)[C@@H]4CNCCCO4)c(F)c3)cc12
75 to 100%

Requested read-out inhibition at 0.05 µM, target or system DPP1 (Homo sapiens (Human)), entry CS(=O)(=O)Cn1c(=O)oc2ccc(-c3ccc(C[C@@H](C#N)NC(=O)[C@@H]4CNCCCO4)c(F)c3)cc21
< 30%

Requested read-out inhibition at 0.05 µM, target or system DPP1 (Homo sapiens (Human)), entry N#C[C@H](Cc1ccc(-c2ccc3oc(=O)n(CF)c3c2)cc1)NC(=O)[C@@H]1CNCCCO1
75 to 100%

Requested read-out inhibition at 0.05 µM, target or system DPP1 (Homo sapiens (Human)), entry COCC1OC(=O)c2ccc(-c3ccc(C[C@@H](C#N)NC(=O)[C@@H]4CNCCCO4)c(F)c3)cc21 (some centres unmarked)
75 to 100%
